Measured MIC, listed per entry.
- assayed-target: Multidrug efflux pump subunit AcrB (Escherichia coli (strain K12)) (UniProt P31224)
- Sequence (P31224 whole entry): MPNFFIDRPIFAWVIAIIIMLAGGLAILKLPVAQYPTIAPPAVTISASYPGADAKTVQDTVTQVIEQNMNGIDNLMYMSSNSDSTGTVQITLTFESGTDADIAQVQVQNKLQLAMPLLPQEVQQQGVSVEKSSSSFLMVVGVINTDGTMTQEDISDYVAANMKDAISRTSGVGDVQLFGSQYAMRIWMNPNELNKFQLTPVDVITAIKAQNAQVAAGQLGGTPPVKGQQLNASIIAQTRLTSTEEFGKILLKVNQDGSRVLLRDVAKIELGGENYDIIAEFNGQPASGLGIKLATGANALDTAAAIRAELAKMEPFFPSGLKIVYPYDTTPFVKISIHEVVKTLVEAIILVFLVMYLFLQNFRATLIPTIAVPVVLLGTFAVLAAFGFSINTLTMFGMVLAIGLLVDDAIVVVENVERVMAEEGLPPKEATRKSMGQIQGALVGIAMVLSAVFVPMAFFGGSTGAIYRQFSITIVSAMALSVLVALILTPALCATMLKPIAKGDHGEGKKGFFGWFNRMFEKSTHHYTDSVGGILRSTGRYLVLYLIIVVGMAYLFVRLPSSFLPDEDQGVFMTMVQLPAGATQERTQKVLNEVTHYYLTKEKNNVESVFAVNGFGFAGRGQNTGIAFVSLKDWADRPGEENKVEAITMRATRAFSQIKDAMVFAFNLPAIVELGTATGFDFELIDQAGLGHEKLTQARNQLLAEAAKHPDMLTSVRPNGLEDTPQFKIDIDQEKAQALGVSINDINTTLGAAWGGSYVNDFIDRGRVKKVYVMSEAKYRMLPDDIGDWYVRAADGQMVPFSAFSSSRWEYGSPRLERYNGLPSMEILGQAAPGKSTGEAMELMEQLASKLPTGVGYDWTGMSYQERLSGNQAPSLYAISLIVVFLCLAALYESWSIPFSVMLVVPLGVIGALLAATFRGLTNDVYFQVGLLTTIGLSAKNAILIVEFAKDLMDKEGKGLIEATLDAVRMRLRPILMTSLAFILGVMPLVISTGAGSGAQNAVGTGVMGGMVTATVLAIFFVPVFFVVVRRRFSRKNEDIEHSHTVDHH
- experiment: Inhibition of AcrB in wild-type drug-resistant Escherichia coli […] assessed as potentiation of chloramphenicol-induced antimicrobial activity by measuring chloramphenicol MIC at 128 ug/ml by checkerboard titration method (Rvb =16 ug/ml)
assay-readout: MIC (µg/mL)

{"query-smiles": "COc1cccc2cc3c(cc12)C(=O)N(Cc1ccccc1)C3=O", "assayed-target": "Multidrug efflux pump subunit AcrB (Escherichia coli (strain K12)) (UniProt P31224)", "assay-readout": "MIC", "reported": 8}
{"query-smiles": "COc1ccc(CN2C(=O)c3cc4cccc(OC)c4cc3C2=O)cc1", "assayed-target": "Multidrug efflux pump subunit AcrB (Escherichia coli (strain K12)) (UniProt P31224)", "assay-readout": "MIC", "reported": 16}
{"query-smiles": "CCCCCN1C(=O)c2cc3cccc(OC)c3cc2C1=O", "assayed-target": "Multidrug efflux pump subunit AcrB (Escherichia coli (strain K12)) (UniProt P31224)", "assay-readout": "MIC", "reported": 4}
{"query-smiles": "COc1cccc2cc3c(cc12)C(=O)N(C)C3=O", "assayed-target": "Multidrug efflux pump subunit AcrB (Escherichia coli (strain K12)) (UniProt P31224)", "assay-readout": "MIC", "reported": 16}
{"query-smiles": "CCCCCCN1C(=O)c2cc3cccc(OC)c3cc2C1=O", "assayed-target": "Multidrug efflux pump subunit AcrB (Escherichia coli (strain K12)) (UniProt P31224)", "assay-readout": "MIC", "reported": 8}
{"query-smiles": "CCc1ccccc1N1C(=O)c2cc3cccc(OC)c3cc2C1=O", "assayed-target": "Multidrug efflux pump subunit AcrB (Escherichia coli (strain K12)) (UniProt P31224)", "assay-readout": "MIC", "reported": 8}
{"query-smiles": "COc1cccc2cc3c(cc12)C(=O)N(C1CCCC1)C3=O", "assayed-target": "Multidrug efflux pump subunit AcrB (Escherichia coli (strain K12)) (UniProt P31224)", "assay-readout": "MIC", "reported": 16}
{"query-smiles": "COc1cccc2cc3c(cc12)C(=O)N(C(C)(C)C)C3=O", "assayed-target": "Multidrug efflux pump subunit AcrB (Escherichia coli (strain K12)) (UniProt P31224)", "assay-readout": "MIC", "reported": 16}
{"query-smiles": "COc1cccc2cc3c(cc12)C(=O)N(C(C)C)C3=O", "assayed-target": "Multidrug efflux pump subunit AcrB (Escherichia coli (strain K12)) (UniProt P31224)", "assay-readout": "MIC", "reported": 8}
{"query-smiles": "COc1cccc2cc3c(cc12)C(=O)N(c1ccccc1Cl)C3=O", "assayed-target": "Multidrug efflux pump subunit AcrB (Escherichia coli (strain K12)) (UniProt P31224)", "assay-readout": "MIC", "reported": 16}
{"query-smiles": "COc1cccc2cc3c(cc12)C(=O)N(Cc1ccccc1Cl)C3=O", "assayed-target": "Multidrug efflux pump subunit AcrB (Escherichia coli (strain K12)) (UniProt P31224)", "assay-readout": "MIC", "reported": 16}
{"query-smiles": "COc1ccccc1CN1C(=O)c2cc3cccc(OC)c3cc2C1=O", "assayed-target": "Multidrug efflux pump subunit AcrB (Escherichia coli (strain K12)) (UniProt P31224)", "assay-readout": "MIC", "reported": 16}
